Test system: Plasmodium falciparum
Assay: ST_JUDE: Cytotoxicity against Plasmodium falciparum Dd2
Type: functional, organism-based
Kindly supply the reported EC50 values for the records listed here.
Could you give me the number in µM? Just the number is fine.

For the compound shown here, OC(CNC1CCCC1)Cn1c2ccccc2c2ccccc21 (stereo not given) , give the reported EC50.
0.889

Input CCc1ccccc1NC(=O)C1c2ccccc2C(=O)N(CC(C)C)C1c1cccs1 (stereo not given)
1.21

Input Oc1ccc(Br)cc1CN1CCN(Cc2ccccc2)CC1
0.776

Input CCOc1cc(C2CC(=O)NC3=C2C(=O)CC(c2ccc(OC)cc2)C3)cc(Cl)c1O (stereo not given)
1.31

Input CCOc1cc(C2CC(=O)NC3=C2C(=O)CC(c2cc(OC)ccc2OC)C3)ccc1O (stereo not given)
1.38

Input CCCCCOc1ccc(N(C(C)=O)C2=C(N3CCCCC3)C(=O)c3ccccc3C2=O)cc1
0.754

Input CCO/C(O)=C1\C(C)=NC2=C(C(=O)CC(c3ccc(OC)c(OC)c3)C2)C1c1cccc(Cl)c1 (stereo not given)
1.48

Input COC(=O)C1=CNC=C(C(=O)OC)C1c1ccc(Cl)c(Cl)c1
0.78

Input Cn1c(=O)c2c(-c3ccc(C(C)(C)C)cc3)n(-c3cc(Cl)ccc3O)cc2n(C)c1=O
1.27

Input CC(C)(C)c1ccc(S(=O)(=O)NC2=C/C(=N\c3ccc(O)cc3)C(=O)c3ccccc32)cc1
1.03
